B1: HHH_rd1_0493 (parent)
chain: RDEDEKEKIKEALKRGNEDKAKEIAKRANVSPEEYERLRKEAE

Variants of: B1
method description: folding stability dG (cDNA display proteolysis); higher = more stable
cond: PBS, room temperature
Reported folding stability dG values are given for each entry in this list.
reported metric: folding stability dG (kcal/mol)

sequence: RDEDEKEKIKEALKRGNEDKAKEIAKRANVSPEEYERCRKEAE [L38C]
reported metric: folding stability dG
reported value: 1.29
--
sequence: RDEDEKEKIKEALKRGNEDKAKEIAKRPNVSPEEYERLRKEAE [A28P]
reported metric: folding stability dG
reported value: 0.576
--
sequence: RDEDEKESIKEALKRGNEDKAKEIAKRANVSPEEYERLRKEAE [K8S]
reported metric: folding stability dG
reported value: 2.78
--
sequence: RDEDEKEKICEALKRGNEDKAKEIAKRANVSPEEYERLRKEAE [K10C]
reported metric: folding stability dG
reported value: 2.32
--
sequence: RDEDEKEKIKEALKRGNETKAKEIAKRANVSPEEYERLRKEAE [D19T]
reported metric: folding stability dG
reported value: 3.05
--
sequence: RDEDEKEKIKEALKRGNDDKAKEIAKRANVSPEEYERLRKEAE [E18D]
reported metric: folding stability dG
reported value: 2.47
--
sequence: RDEDEKEKIKEALKRGNEDKAKEEAKRANVSPEEYERLRKEAE [I24E]
reported metric: folding stability dG
reported value: 1.16
--
sequence: RDKDEKEKIKEALKRGNEDKAKEIAKRANVSPEEYERLRKEAE [E3K]
reported metric: folding stability dG
reported value: 2.93
--
sequence: RDEDEKEKIKEALKYGNEDKAKEIAKRANVSPEEYERLRKEAE [R15Y]
reported metric: folding stability dG
reported value: 2.69
--
sequence: RDEDEKEKIKEALKRGNEWKAKEIAKRANVSPEEYERLRKEAE [D19W]
reported metric: folding stability dG
reported value: 2.72
